# TEST_SYSTEM: T1, human CD25 (human, UniProt P01589 22-272)
# T1 construct: In the functional assays it was native on T cells or SUDHL-1 cells; also called huCD25; hCD25
# T1 sequence: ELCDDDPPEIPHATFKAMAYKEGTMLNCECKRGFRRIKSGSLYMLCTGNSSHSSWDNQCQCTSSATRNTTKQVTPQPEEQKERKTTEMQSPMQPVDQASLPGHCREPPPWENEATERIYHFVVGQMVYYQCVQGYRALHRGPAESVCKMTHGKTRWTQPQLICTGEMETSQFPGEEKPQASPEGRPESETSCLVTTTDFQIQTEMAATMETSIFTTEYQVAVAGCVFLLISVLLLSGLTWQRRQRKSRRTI
# METHOD_DESCRIPTION: flow cytometry on HEK293 cells transiently transfected with huCD25; 3-fold dilutions from 500 nM; detection with anti-human IgG (Fc specific) FITC
PROPERTY_MEASURED: binding result

H01 (antibody, V domains shown, detected with anti-human IgG (Fc specific); also called anti-CD25 antibody H01) VH: QVQLVESGGGVVQPGRSLRLSCAASGFTFSNHAMAWVRQAPGKGLEWVAVISYDGSNKYYADSVKGRFTISRDNSQNTLYLQMNSLRAEDTAVYYCTTGLNSGYDWGQGTLVTVSS VL: DIQMTQSPSSLSASVGDRVTITCRASQNVSSFLNWYQQKPGKAPRRLIYGTSSLQSGVPSRFSGSGSGTDYTLTISSLQPEDFATYYCQQYTSWPWTFGQGTKLEIK :: binds
G09 (antibody, V domains shown, detected with anti-human IgG (Fc specific); also called anti-CD25 antibody G09) VH: QVQLVESGGGVVQPGRSLRLSCAASGFTFSNHAMAWVRQAPGKGLEWVAVISYDGSNKYYRDSVKGRFTISRDNAQNTLYLQMNSLRAEDTAVYYCTTGLNSGYDWGQGTLVTVSS VL: DIQMTQSPSSLSASVGDRVTITCRASQNVSSFLNWYQQKPGEAPRRLIYGTNSLQSGVPSRFSGSGSGTDYTLTISSLQPEDFATYYCQQYNSWPWTFGQGTKLEIK :: binds
H07 (antibody, V domains shown, It was detected with anti-human IgG (Fc specific), and a human IgG1 isotype served as control; also called anti-CD25 antibody H07) VH: QVQLVESGGGVVQPGRSLRLSCAASGFTFSNHAMAWVRQAPGKGLEWVAVISYDGSNKYYADSVKGRFTISRDNAKNTLYLQMNSLRAEDTAVYYCTTGWNSGYDWGQGTLVTVSS VL: DIQMTQSPSSLSASVGDRVTITCRASQSVNSFLNWYQQKPGKAPRRLIYGTSSLQSGVPSRFSGSGSGTDYTLTISSLQPEDFATYYCQQYTSWPWTFGQGTKLEIK :: binds

Just for reference, patent US20240002522A1 is where these values come from.
